Measured values drawn from ChEMBL document CHEMBL1125078 for this set.

Test system: V79-379A (Chinese hamster lung fibroblasts)
procedureDetails: Cytotoxicity in nitrogen (MMT assay).
Please respond with 1 when measured C50 is strictly beneath 0.1 mM, and with -1 in all other cases.

compound: Br.C[C@H](Br)[C@H](C)NCC(O)CNC(=O)c1ccc([N+](=O)[O-])o1 (some centres not stated)
targetDesc: V79-379A (Chinese hamster lung fibroblasts)
class: 1
//
compound: CC1(C)CN1CC(O)CNC(=O)/C=C/c1ccc([N+](=O)[O-])o1 (configuration not stated)
targetDesc: V79-379A (Chinese hamster lung fibroblasts)
class: 1
//
compound: CC(C)(CO)NC(=O)c1ccc([N+](=O)[O-])o1
targetDesc: V79-379A (Chinese hamster lung fibroblasts)
class: -1
//
compound: O=C(/C=C/c1ccc([N+](=O)[O-])o1)NCC1CO1 (configuration not stated)
targetDesc: V79-379A (Chinese hamster lung fibroblasts)
class: 1
//
compound: COCC(O)Cn1ccnc1[N+](=O)[O-] (configuration not stated)
targetDesc: V79-379A (Chinese hamster lung fibroblasts)
class: -1

Problem: Bench note: check whether `CC1(C)CN1C(=O)c1ccc([N+](=O)[O-])o1` shows C50 below 0.1 mM
Result: -1

Problem: Find out if reported C50 for `Br.NC(=O)N/N=C/c1ccc([N+](=O)[O-])o1` is less than 0.1 mM
Result: -1

Problem: Just wondering, is C50 of `C=CCNC(=O)c1cc([N+](=O)[O-])oc1C` below 0.1 mM?
Result: -1

Problem: Below 0.1 mM on C50? Entry `C=CCOC(=O)c1ccc([N+](=O)[O-])o1`
Result: 1

Problem: For this compound, is C50 lower than 0.1 mM? `C=CCNC(=O)/C=C/c1ccc([N+](=O)[O-])o1`
Result: 1

Problem: Take the compound Br.O=[N+]([O-])c1nccn1CC(O)CNCCBr (configuration not stated) and say whether its C50 is less than 0.1 mM.
Result: 1
